// provenance: patent US10100058B2

# System Tested: recombinant CaMKIIδ (Homo sapiens (Human))
# Assay Remarks: CaMKIIδ biochemical assay (HTRF)
# Details: 10 pM CaMKIIδ, 110 nM calmodulin, 12 μM ATP, 1 hour; read-out: CAMKIID-HTRF-384V2 (IC50 - nM)
Decide using IC50 alone. Strictly below 0.3 nM: true. Equal to or above 0.3 nM: false.

For orientation, consider the following solved cases.
| Record Smiles | System Tested | Qualitative Label |
| --- | --- | --- |
| CCN(CC)[C@@H](C)CNC(=O)c1cc(-c2cnn3ccc(-c4cccs4)nc23)nc(N2CCO[C@H](CO)C2)c1 | recombinant CaMKIIδ (Homo sapiens (Human)) | true |
| CCN(CC)[C@@H](C)CNC(=O)c1cc(NCCN(C)C)nc(-c2cnn3ccc(-c4cccs4)nc23)c1 | recombinant CaMKIIδ (Homo sapiens (Human)) | true |

INPUT: Please state whether IC50 is below 0.3 nM for CCN(CC)[C@@H](C)CNC(=O)c1cc(-c2cnn3ccc(-c4cccs4)nc23)nc(-c2cnn3ccc(-c4cccs4)nc23)c1
OUTPUT: false

INPUT: Please state whether IC50 is below 0.3 nM for CCN1CCC[C@H]1CNC(=O)c1cc(-c2cnn3ccc(-c4cccs4)nc23)nc(N2CC(OC)C2)c1
OUTPUT: false

INPUT: Please state whether IC50 is below 0.3 nM for C[C@@H](CNC(=O)c1ccnc(-c2cnn3ccc(-c4cccs4)nc23)c1)NCCO
OUTPUT: false

INPUT: Please state whether IC50 is below 0.3 nM for O=C(NCC12CCCN1CCC2)c1ccnc(-c2cnn3ccc(-c4cccs4)nc23)c1
OUTPUT: false

INPUT: Please state whether IC50 is below 0.3 nM for CCN[C@@H](C)CNC(=O)c1cc(Cl)nc(-c2cnn3ccc(-c4ccccc4)nc23)c1
OUTPUT: false

INPUT: Please state whether IC50 is below 0.3 nM for CCN(CC)[C@@H](C)CNC(=O)c1cc(-c2cnn3ccc(-c4cccs4)nc23)nc(N2CC[C@@H](C#N)C2)c1
OUTPUT: true

INPUT: Please state whether IC50 is below 0.3 nM for NC[C@H]1CCCCN1C(=O)c1cc(-c2cnn3ccc(-c4ccccc4)nc23)nc(C2CC2)c1
OUTPUT: false

INPUT: Please state whether IC50 is below 0.3 nM for CCN[C@@H](C)CNC(=O)c1cc(-c2cnn3ccc(-c4cccs4)nc23)nc(N2CC(OC)C2)c1
OUTPUT: false

INPUT: Please state whether IC50 is below 0.3 nM for CCN(CC)[C@@H](C)CNC(=O)c1cc(-c2cnn3ccc(-c4cccs4)nc23)nc(N2CC[C@H]2C(=O)N2CC(F)C2)c1
OUTPUT: true

INPUT: Please state whether IC50 is below 0.3 nM for CN(C)CCNC(=O)c1ccnc(-c2cnn3ccc(-c4cccs4)nc23)c1
OUTPUT: false

INPUT: Please state whether IC50 is below 0.3 nM for CCN(CC)[C@@H](C)CNC(=O)c1cc(-c2cnn3ccc(-c4cccs4)nc23)nc(N2CCC[C@H]2C(=O)NC)c1
OUTPUT: false

INPUT: Please state whether IC50 is below 0.3 nM for N[C@H]1CCN(C(=O)c2ccnc(-c3cnn4ccc(-c5cccs5)nc34)c2)C1
OUTPUT: false

INPUT: Please state whether IC50 is below 0.3 nM for CNc1cnc(-c2cnn3ccc(-c4ccccc4)nc23)cc1C(=O)N1CCCC[C@@H]1CN
OUTPUT: false

----------
# System Tested: recombinant CaMKIIδ (Homo sapiens (Human))
# Assay Remarks: CaMKIIδ biochemical assay (HTRF)
# Details: 10 pM CaMKIIδ, 110 nM calmodulin, 12 μM ATP, 1 hour; read-out: CAMKIID-HTRF-384V2 (IC50 - nM)
Endpoint: log10(IC50) (log10 of the value in nM)
Response schema: value (number) is log10 of IC50 in units of nM.

Study these solved cases before continuing.
| Molecule | System Tested | log10(IC50) |
| --- | --- | --- |
| CCN(CC)[C@@H](C)CNC(=O)c1cc(OCCCOC)nc(-c2cnn3ccc(-c4cccs4)nc23)c1 | recombinant CaMKIIδ (Homo sapiens (Human)) | -0.47 |
| CC1(C)CNC1CNC(=O)c1ccnc(-c2cnn3ccc(-c4ccccc4)nc23)c1 (centres unmarked) | recombinant CaMKIIδ (Homo sapiens (Human)) | 2.08 |
| CCN(CC)[C@@H](C)CNC(=O)c1cc(N[C@@H](C)C(N)=O)nc(-c2cnn3ccc(-c4cccs4)nc23)c1 | recombinant CaMKIIδ (Homo sapiens (Human)) | -0.08 |
| CCN(CC)[C@@H](C)CNC(=O)c1cc(-c2cnn3ccc(-c4cccs4)nc23)nc(N2CC[C@H]2C(=O)NCC(F)F)c1 | recombinant CaMKIIδ (Homo sapiens (Human)) | -0.33 |
| O=C(NCC1CCCCN1)c1ccnc(-c2cnn3ccc(-c4cccs4)nc23)c1 (centres unmarked) | recombinant CaMKIIδ (Homo sapiens (Human)) | 1.95 |

INPUT: Identify log10(IC50) associated with the molecule CN(C)c1cc(C(=O)N2CC[C@H](N)C2)cc(-c2cnn3ccc(-c4cccs4)nc23)n1
OUTPUT: 1.32

INPUT: Identify log10(IC50) associated with the molecule CCN[C@@H](C)CNC(=O)c1cc(-c2cnn3ccc(-c4ccccc4)nc23)nc(C2CC2)c1
OUTPUT: 1.98

INPUT: Identify log10(IC50) associated with the molecule CCNC(CNC(=O)c1ccnc(-c2cnn3ccc(-c4ccccc4)nc23)c1)C(C)C (centres unmarked)
OUTPUT: 1.08

----------
# System Tested: recombinant CaMKIIδ (Homo sapiens (Human), UniProt Q13557)
# Assay Remarks: CaMKIIδ biochemical assay (HTRF)
# Details: 10 pM CaMKIIδ, 110 nM calmodulin, 12 μM ATP, 1 hour; read-out: CAMKIID-HTRF-384V2 (IC50 - nM)
Endpoint: IC50 (nM)
Reply with just the number (in nM).

Study these solved cases before continuing.
| Molecule | Unit Symbol | Result Value |
| --- | --- | --- |
| CN(C)CCNC(=O)c1ccnc(-c2cnn3ccc(-c4ccccc4)nc23)c1 [Example 39] | nM | 137 |
| CCN[C@@H](C)CNC(=O)c1cc(CC)nc(-c2cnn3ccc(-c4ccccc4)nc23)c1 [Example 119] | nM | 71 |
| O=C(NC[C@H]1CCN1)c1ccnc(-c2cnn3ccc(-c4cccs4)nc23)c1 [Example 8] | nM | 10 |

INPUT: Lab note: record IC50 of NC[C@H]1CCCCN1C(=O)c1cc(-c2cnn3ccc(-c4ccccc4)nc23)nc(C(F)(F)F)c1 [Example 116] tested on recombinant CaMKIIδ (Homo sapiens (Human), UniProt Q13557).
OUTPUT: 5.89

INPUT: Lab note: record IC50 of O=C(c1ccnc(-c2cnn3ccc(-c4ccccc4)nc23)c1)N1CCC2CNCC21 (stereo not drawn) [Example 92] tested on recombinant CaMKIIδ (Homo sapiens (Human), UniProt Q13557).
OUTPUT: 32.1

INPUT: Lab note: record IC50 of CCN(CC)[C@@H](C)CNC(=O)c1cc(-c2cnn(CCC#N)c2)nc(-c2cnn3ccc(-c4cccs4)nc23)c1 [Example 341] tested on recombinant CaMKIIδ (Homo sapiens (Human), UniProt Q13557).
OUTPUT: 0.15

INPUT: Lab note: record IC50 of NC[C@H]1CCCCN1C(=O)c1cc(-c2cnn3ccc(-c4ccccc4)nc23)ncc1N [Example 138] tested on recombinant CaMKIIδ (Homo sapiens (Human), UniProt Q13557).
OUTPUT: 0.4

INPUT: Lab note: record IC50 of CCN(CC)[C@@H](C)CNC(=O)c1cc(-c2cnn3ccc(-c4cccs4)nc23)nc(N2CC[C@H]2C(=O)N2CCOCC2)c1 [Example 293] tested on recombinant CaMKIIδ (Homo sapiens (Human), UniProt Q13557).
OUTPUT: 0.16

INPUT: Lab note: record IC50 of CCN[C@@H](C)CNC(=O)c1cc(-c2cnn3ccc(-c4cccs4)nc23)nc(N2CC(C)(O)C2)c1 [Example 245] tested on recombinant CaMKIIδ (Homo sapiens (Human), UniProt Q13557).
OUTPUT: 9.25

INPUT: Lab note: record IC50 of CCN(CC)[C@@H](C)CNC(=O)c1cc(-c2cnn3ccc(-c4cccs4)nc23)nc(N2CCC(OC)CC2)c1 [Example 247] tested on recombinant CaMKIIδ (Homo sapiens (Human), UniProt Q13557).
OUTPUT: 0.46

INPUT: Lab note: record IC50 of CC(C)(C)c1cc(C(=O)N2CCCC[C@@H]2CN)cc(-c2cnn3ccc(-c4ccccc4)nc23)n1 [Example 130] tested on recombinant CaMKIIδ (Homo sapiens (Human), UniProt Q13557).
OUTPUT: 266

INPUT: Lab note: record IC50 of CCN(CC)[C@@H](C)CNC(=O)c1cc(NC2CCOCC2)nc(-c2cnn3ccc(-c4cccs4)nc23)c1 [Example 222] tested on recombinant CaMKIIδ (Homo sapiens (Human), UniProt Q13557).
OUTPUT: 0.17

INPUT: Lab note: record IC50 of O=C(NC[C@@H]1CCN1)c1ccnc(-c2cnn3ccc(-c4cccs4)nc23)c1 [Example 7] tested on recombinant CaMKIIδ (Homo sapiens (Human), UniProt Q13557).
OUTPUT: 6.05

INPUT: Lab note: record IC50 of C[C@@H](CNC(=O)c1ccnc(-c2cnn3ccc(-c4cccs4)nc23)c1)NCCF [Example 24] tested on recombinant CaMKIIδ (Homo sapiens (Human), UniProt Q13557).
OUTPUT: 7.88

INPUT: Lab note: record IC50 of CCN(CC)[C@@H](C)CNC(=O)c1cc(-c2cnn3ccc(-c4cccs4)nc23)nc(N2CC(O)(CC)C2)c1 [Example 214] tested on recombinant CaMKIIδ (Homo sapiens (Human), UniProt Q13557).
OUTPUT: 0.18

INPUT: Lab note: record IC50 of NC[C@H]1CCCCN1C(=O)c1cc(Cl)nc(-c2cnn3ccc(-c4ccccc4)nc23)c1 [Example 127] tested on recombinant CaMKIIδ (Homo sapiens (Human), UniProt Q13557).
OUTPUT: 0.22

INPUT: Lab note: record IC50 of CCN(CC)[C@@H](C)CNC(=O)c1cc(-c2cnn3ccc(-c4cccs4)nc23)nc(N2CCn3ccnc3C2)c1 [Example 155] tested on recombinant CaMKIIδ (Homo sapiens (Human), UniProt Q13557).
OUTPUT: 0.32

INPUT: Lab note: record IC50 of CCN[C@H](C)CNC(=O)c1ccnc(-c2cnn3ccc(-c4ccccc4)nc23)c1 [Example 74] tested on recombinant CaMKIIδ (Homo sapiens (Human), UniProt Q13557).
OUTPUT: 34.2

INPUT: Lab note: record IC50 of CCN(CC)[C@@H](C)CNC(=O)c1cc(NC2CC2)nc(-c2cnn3ccc(-c4cccs4)nc23)c1 [Example 213] tested on recombinant CaMKIIδ (Homo sapiens (Human), UniProt Q13557).
OUTPUT: 0.18

INPUT: Lab note: record IC50 of COC1CN(c2cc(C(=O)N3CC[C@H](N)C3)cc(-c3cnn4ccc(-c5ccccc5)nc34)n2)C1 [Example 328] tested on recombinant CaMKIIδ (Homo sapiens (Human), UniProt Q13557).
OUTPUT: 91.9

INPUT: Lab note: record IC50 of O=C(c1ccnc(-c2cnn3ccc(-c4ccccc4)nc23)c1)N1CCCCC12CCNC2 (stereo not drawn) [Example 89] tested on recombinant CaMKIIδ (Homo sapiens (Human), UniProt Q13557).
OUTPUT: 13.6
